target: TLR9 (Homo sapiens, UniProt Q9NR96); construct: expressed in transfected cells; host or cells: HEK293; assay: TLR9 screening of (+)-morphinan library, SEAP reporter in HEK293 cells expressing TLR9; assay type: cell-based; conditions: 10 μM; activator ODN2006; control (no activator) 0.14, activator 1.42 OD
Sequence (Q9NR96 26-1032): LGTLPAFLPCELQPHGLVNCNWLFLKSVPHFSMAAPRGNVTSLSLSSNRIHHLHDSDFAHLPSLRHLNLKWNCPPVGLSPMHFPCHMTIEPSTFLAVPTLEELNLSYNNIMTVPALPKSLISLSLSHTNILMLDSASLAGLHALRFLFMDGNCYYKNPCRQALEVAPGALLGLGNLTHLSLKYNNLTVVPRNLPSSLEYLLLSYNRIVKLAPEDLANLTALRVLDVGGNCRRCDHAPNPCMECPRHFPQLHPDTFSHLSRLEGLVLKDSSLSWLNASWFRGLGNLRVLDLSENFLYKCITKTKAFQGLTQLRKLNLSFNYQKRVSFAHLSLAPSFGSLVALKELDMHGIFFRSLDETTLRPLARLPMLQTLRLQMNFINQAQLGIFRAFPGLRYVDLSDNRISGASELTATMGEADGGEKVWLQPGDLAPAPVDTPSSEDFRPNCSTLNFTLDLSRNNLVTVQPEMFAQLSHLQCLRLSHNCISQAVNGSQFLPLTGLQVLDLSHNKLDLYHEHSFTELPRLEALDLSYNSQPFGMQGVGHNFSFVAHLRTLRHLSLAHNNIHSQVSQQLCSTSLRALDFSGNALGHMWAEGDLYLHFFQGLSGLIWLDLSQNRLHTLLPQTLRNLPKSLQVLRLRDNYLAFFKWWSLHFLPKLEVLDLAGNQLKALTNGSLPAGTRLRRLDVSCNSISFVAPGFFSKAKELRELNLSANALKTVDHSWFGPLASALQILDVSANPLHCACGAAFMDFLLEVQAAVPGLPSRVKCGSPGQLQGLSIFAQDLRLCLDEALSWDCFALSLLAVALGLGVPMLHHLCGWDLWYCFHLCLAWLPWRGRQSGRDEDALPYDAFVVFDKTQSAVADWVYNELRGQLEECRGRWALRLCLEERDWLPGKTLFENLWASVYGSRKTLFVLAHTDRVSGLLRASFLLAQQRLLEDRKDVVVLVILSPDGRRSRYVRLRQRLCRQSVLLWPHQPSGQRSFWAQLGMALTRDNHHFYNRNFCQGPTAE
Returns: string. Value is label 1 if measured OD 650 nm (mean ± sd) is below 0.2 OD, and label 0 if it is greater than or equal to it.

Check out these entries, answers already filled in.
Input COc1ccc2c3c1O[C@@H]1C(NC(C)=O)CC[C@]4(O)[C@H](C2)N(C)CC[C@@]314 (some centres unmarked) ; condition: OD 650 nm (mean ± sd) strictly below 0.2 OD. Does it hold?
label 1

Input `COc1ccc2c3c1O[C@@H]1C(=O)CC[C@@H]4[C@H](C2)N(CC2CC2)CC[C@@]314` ; condition: OD 650 nm (mean ± sd) strictly below 0.2 OD. Does it hold?
label 1

Input CCCNC1CCC2C3Cc4ccc(OC)c5c4[C@]2(CCN3C)C1O5 (some centres unmarked) ; condition: OD 650 nm (mean ± sd) strictly below 0.2 OD. Does it hold?
label 1

Input COc1cc(C(C)C)c2c3c1O[C@@H]1C(=O)CCC4C(C2)N(CC2CC2)CC[C@]341 (some centres unmarked) ; condition: OD 650 nm (mean ± sd) strictly below 0.2 OD. Does it hold?
label 1

Input C=CCN1CC[C@@]23c4c5ccc(OC)c4O[C@@H]2C(NC(C)=O)CC[C@@H]3[C@@H]1C5 (some centres unmarked) ; condition: OD 650 nm (mean ± sd) strictly below 0.2 OD. Does it hold?
label 0

***
Input `C=C1CC[C@]2(O)[C@@H]3Cc4ccc(OC)c5c4[C@]2(CCN3C)[C@@H]1O5` ; condition: OD 650 nm (mean ± sd) strictly below 0.2 OD. Does it hold?
label 0

Input COc1ccc2c(c1O)[C@@]13CCN(CC4CC4)C(C2)C1CCC(=O)C3 (some centres unmarked) ; condition: OD 650 nm (mean ± sd) strictly below 0.2 OD. Does it hold?
label 1

Input COc1ccc2c(c1O)[C@@]13CCN(CC4CC4)[C@@H](C2)[C@@]1(O)CC(OC)C(=O)C3 (some centres unmarked) ; condition: OD 650 nm (mean ± sd) strictly below 0.2 OD. Does it hold?
label 0

Input COC(=O)[C@@H](C)NC1CCC2C3Cc4ccc(OC)c5c4[C@]2(CCN3C)C1O5 (some centres unmarked) ; condition: OD 650 nm (mean ± sd) strictly below 0.2 OD. Does it hold?
label 0

Input `COc1ccc2c3c1O[C@@H]1CCC[C@]4(O)[C@H](C2)N(C)CC[C@@]314` ; condition: OD 650 nm (mean ± sd) strictly below 0.2 OD. Does it hold?
label 0

Input `CN[C@@H]1CC[C@]2(O)[C@@H]3Cc4ccc(O)c5c4[C@]2(CCN3CC2CC2)[C@@H]1O5` ; condition: OD 650 nm (mean ± sd) strictly below 0.2 OD. Does it hold?
label 1

Input `C=CCN1CCc2cc(OC)ccc2[C@H]1Cc1ccc(OC)c(O)c1` ; condition: OD 650 nm (mean ± sd) strictly below 0.2 OD. Does it hold?
label 0

Input COc1ccc2c3c1O[C@@H]1C(O)CC[C@@H]4[C@H](C2)N(CC2CCC2)CC[C@@]314 (some centres unmarked) ; condition: OD 650 nm (mean ± sd) strictly below 0.2 OD. Does it hold?
label 0

Input COc1ccc2c3c1OC1C(OC(C)=O)CCC4C(C2)N(C)CC[C@]341 (some centres unmarked) ; condition: OD 650 nm (mean ± sd) strictly below 0.2 OD. Does it hold?
label 0

Input CCOC(=O)N1CC[C@@]23CC(=O)CCC2C1Cc1c(Br)cc(OC)c(O)c13 (some centres unmarked) ; condition: OD 650 nm (mean ± sd) strictly below 0.2 OD. Does it hold?
label 0

Input COc1ccc2c3c1O[C@@H]1C(NCCO)CC[C@@H]4[C@H](C2)N(C)CC[C@@]314 (some centres unmarked) ; condition: OD 650 nm (mean ± sd) strictly below 0.2 OD. Does it hold?
label 1

Input OCCNC1CC[C@]2(O)[C@@H]3Cc4ccc(O)c5c4[C@]2(CCN3CC2CC2)[C@@H]1O5 (some centres unmarked) ; condition: OD 650 nm (mean ± sd) strictly below 0.2 OD. Does it hold?
label 1

Input C=CCN1CC[C@@]23CC(=O)C(OC)C[C@@H]2[C@@H]1Cc1ccc(OC)c(O)c13 (some centres unmarked) ; condition: OD 650 nm (mean ± sd) strictly below 0.2 OD. Does it hold?
label 0

Input `COC1=CC=C2[C@@H]3Cc4c(Br)cc(OCc5ccccc5)c5c4[C@]2(CCN3CC2CC2)[C@@H]1O5` ; condition: OD 650 nm (mean ± sd) strictly below 0.2 OD. Does it hold?
label 1

These data points were gathered from patent US10363251B2.
